Assay overview: in vitro
Condition: human, CC50, uninfected A549 cells, CellTiter-Glo
Measured property: CC50

1) C[C@H]1C/C=C/COc2c(F)cccc2[C@H](c2ccccc2)N2CN1C(=O)c1c(O)c(=O)ccn12 (single isomer, unassigned) [Compound 100BA]    40.2 µM
2) Cc1c(F)ccc2c1OC/C=C\CN1CN([C@@H]2c2ccccc2)n2ccc(=O)c(O)c2C1=O (single isomer, unassigned) [Compound 133A]    > 0.2 µM
3) O=C1c2c(O)c(=O)ccn2N2CN1CC/C=C/CCOc1ccccc1[C@@H]2c1ccccc1 (single isomer, unassigned) [Compound 65D]    > 2 µM

###

Assay overview: in vitro
Condition: human, CC50, uninfected A549 cells, CellTiter-Glo
Measured property: CC50

1) O=C1c2c(O)c(=O)ccn2N2CN1C/C=C\COc1c(F)cccc1[C@@H]2c1cccc(F)n1 (single isomer, unassigned) [Compound 104A]    > 200 nM
2) O=C1c2c(O)c(=O)ccn2N2CN1C1(/C=C/COc3cc(F)c(F)c4c3[C@@H]2c2ccccc2SC4)CCC1 (single isomer, unassigned) [Compound 159A]    > 100 nM
3) CC[C@@H]1/C=C/COc2c(ccc(F)c2F)[C@H](c2ccccc2)N2CN1C(=O)c1c(O)c(=O)ccn12 [Compound 101BB]    29900 nM
4) CC[C@H]1/C=C/COc2c(F)cccc2[C@@H](c2ccccc2)N2CN1C(=O)c1c(O)c(=O)ccn12 (single isomer, unassigned) [Compound 85AA]    > 200 nM
5) O=C1c2c(O)c(=O)ccn2N2CN1[C@@H](C1CC1)/C=C/COc1c(ccc(F)c1F)[C@H]2c1ccccc1 (single isomer, unassigned) [Compound 152BA]    > 200 nM
6) O=C1c2c(O)c(=O)ccn2N2CN1C/C=C\COc1cc(F)ccc1[C@@H]2c1ccccn1 (single isomer, unassigned) [Compound 71A]    > 200 nM
